These measurements were taken from ChEMBL document CHEMBL4513216.

Kindly state INHIBITION for each of the entries shown.
- Test system: Plasmodium falciparum
- PROCEDURE_SUMMARY: Screen against P. falciparum Asexual Blood Stage (ABS), at 5uM
- Type: functional, Dd2
- CONDITIONS: tested at 5 uM
Hit rate of the full screen: of about 65,000 compounds, about 2,100 (3.2%) showed an effect of 50% or more. The median lay at about -52%. This is one part of a sample in which strong results are shown more often than they occur.
Give bare numbers, in %.

Sample records with INHIBITION:
{"COMPOUND": "CC(O)Cc1cn(CC2CCN(c3nccc4occc34)CC2)nn1 (stereo not given)", "TESTED_ON": "Plasmodium falciparum", "INHIBITION [%]": -39.4}
{"COMPOUND": "Clc1ccc(C2(NCc3noc(C4CC4)n3)CCCC2)cc1", "TESTED_ON": "Plasmodium falciparum", "INHIBITION [%]": 68.5}
{"COMPOUND": "CCn1cnnc1CNC(=O)c1cc(Cl)ccc1F", "TESTED_ON": "Plasmodium falciparum", "INHIBITION [%]": -20.1}

Hi team, please reply with INHIBITION for each item in this list.
1. CN(CCc1ccccc1)Cc1c(C2CCOCC2)[nH]c2ncccc12
2. Clc1ccc(C2(NCc3noc(C4CC4)n3)CCOCC2)cc1

Result string:
1: -22.4; 2: 3.57
